Hey, just so you know, these numbers are from ChEMBL document CHEMBL1201862.

tested on: A549; test: NCI tumour cell line growth inhibition, 48 h
Active and inactive are the calls of the source. No stated cut-off is given here; in the data, active = GI50 up to about 1.1 µM and inactive = higher.
Known GI50 of a selection of molecules

Molecule: CN(CCCNC(=O)c1nn(-c2ccccc2)c2c1Cc1ccccc1-2)CCCNC(=O)c1nn(-c2ccccc2)c2c1Cc1ccccc1-2
GI50: 1.66 µM (inactive)

Per the reported A549 data, CC(=O)O[C@H]1CC[C@@]2(C)C(=CC[C@@H]3C2CC[C@]2(C)Nc4[nH]ncc4CC32)C1 (some centres undefined) has GI50 of 32.2 µM (inactive)

Per the reported A549 data, COCn1cnc2c(=O)n(-c3ccc(C)cc3)c(=S)n(-c3ccc(C)cc3)c21 has GI50 of > 100 µM (inactive)

Per the reported A549 data, COC(=O)/C(=N/NC(C)(C)C)C(C(=O)C=C(C)C)C(=O)C(=O)Nc1ccc(Cl)cc1C (centres undefined) has GI50 of > 100 µM (inactive)

====

system: HOP-92; assay: NCI tumour cell line growth inhibition, 48 h
Activity calls are given as the source filed them. Rule as the data show it: active = GI50 up to about 1.1 µM and inactive = higher.
Attribute measured: GI50

Example cases with answers are listed next.
Compound: Cc1c(/C=N\NC(=S)N2CCN(C(=S)N/N=C\c3c(C)n(C)n(-c4ccccc4)c3=O)CC2)c(=O)n(-c2ccccc2)n1C
GI50: 40.9 µM (inactive)
--
Compound: CCc1n[nH]c(=O)n1-c1ccc2ccccc2c1
GI50: > 100 µM (inactive)
--
Compound: CNC1=C(C)C(=O)C2=C(C1=O)C(COC(N)=O)C1(OC)C3NC3CN21 (configuration not stated)
GI50: > 10 µM (inactive)
--
Compound: CCN(CC)CCn1ccc(=O)c2cc3c(=O)ccn(CCN(CC)CC)c3c(C)c21
GI50: 7.69 µM (inactive)
--
Compound: CC(=O)OCCC1c2ccccc2-n2nc(-c3ccccc3)c(O)c21 (configuration not stated)
GI50: 11.9 µM (inactive)

For the next question, use this compound.
The compound listed as O=C(c1ccc([N+](=O)[O-])cc1)N1CCCC1 has a reported GI50 of > 100 µM (inactive)

====

Known GI50 of a selection of molecules
test system: UACC-62; test: NCI tumour cell line growth inhibition, 48 h
Active and inactive are the calls of the source. Rule as the data show it: active = GI50 up to about 1.1 µM and inactive = higher.

Molecule: O=C(O)CCC[C@]1(O)O[C@@]2(CCCC2=O)[C@]2(O)CCC[C@@]21O
Observed value: > 100 µM (inactive)

Molecule: CCN1CN(c2ccccc2)C2(CCN(CC(CC3OCCO3)c3ccc(F)cc3)CC2)C1=O (stereo unspecified)
Observed value: 18.1 µM (inactive)

Molecule: N#Cc1ccc(-c2nc(C#N)c(N)o2)cc1
Observed value: > 10 µM (inactive)

Molecule: COC1C(OC(=O)/C=C/C=C/C=C/C=C/C(=O)O)CCC2(CO2)C1C1(C)OC1CC=C(C)C (stereo unspecified)
Observed value: 16.1 µM (inactive)

The molecule listed as CC1(C)OC2C(=O)OC(COCc3ccccc3)C2O1 (stereo unspecified) has a reported GI50 of > 100 µM (inactive)

The molecule listed as CCC(C(=O)c1cccs1)C(O)(C(F)(F)F)C(F)(F)F (stereo unspecified) has a reported GI50 of > 100 µM (inactive)

The molecule listed as O=S1(=O)OCCOS(=O)(=O)C1Cc1ccccc1 has a reported GI50 of 40.8 µM (inactive)

The molecule listed as CCOC(=O)C1=C(Nc2ccc(Br)cc2)OCC1=O has a reported GI50 of > 100 µM (inactive)

The molecule listed as O=C1Nc2ccccc2/C1=N/Nc1c(F)c(F)c(F)c(F)c1F has a reported GI50 of > 100 µM (inactive)

The molecule listed as COc1ccc(N[S+]([O-])c2ccc(OC)cc2)cc1 (stereo unspecified) has a reported GI50 of 14.6 µM (inactive)

The molecule listed as CC1(C)O[C@@H](C[C@]2(C#N)C[C@H](CCl)OC(C)(C)O2)C[C@@H](C#N)O1 has a reported GI50 of > 100 µM (inactive)
